Molecular target: Kras and SOS1 (biotin-tagged human Kras loaded with GDP, His-tagged human SOS1) (Homo sapiens, UniProt P01116, G12D)
Construct: made in house; host or cells: E. coli (stated for Kras only)
Sequence (P01116 1-188 isoform P01116-2 G12D): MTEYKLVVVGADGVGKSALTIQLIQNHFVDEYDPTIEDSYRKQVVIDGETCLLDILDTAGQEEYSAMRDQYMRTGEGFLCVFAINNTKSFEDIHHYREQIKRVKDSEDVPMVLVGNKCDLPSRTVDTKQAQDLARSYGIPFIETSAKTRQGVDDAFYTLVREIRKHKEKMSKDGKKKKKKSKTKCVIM
Test: Protein-protein interaction inhibition between Kras and SOS1 (KrasGl2D-SOS PPI) using AlphaScreen
Format: binding
Conditions: AlphaScreen; biotin-tagged human Kras loaded with GDP, His-tagged human SOS1; read-out: KRAS G12D-SOS PPI IC50
Positions of bridges follow the written chain, without caps; N, C: chain ends. Non-standard residues stand in square brackets, D forms with d. Residues, ends and D or L forms follow the SMILES beside them. *: point of attachment. NMeAbu(3,3-F2-piperidino) = CN[C@@H](CCN1CCCC(F)(F)C1)C(=O)O; hPhe(3-Cl-4-CF3) = N[C@@H](CCc1ccc(C(F)(F)F)c(Cl)c1)C(=O)O; hPhe(4-CF3) = N[C@@H](CCc1ccc(C(F)(F)F)cc1)C(=O)O; NMePhe(4-Cl) = CN[C@@H](Cc1ccc(Cl)cc1)C(=O)O; NMePhe(4-Me) = CN[C@@H](Cc1ccc(C)cc1)C(=O)O; NMePhe(4-F) = CN[C@@H](Cc1ccc(F)cc1)C(=O)O; Phe(3-Br) = N[C@@H](Cc1cccc(Br)c1)C(=O)O; Phe(3-Cl) = N[C@@H](Cc1cccc(Cl)c1)C(=O)O; NMeGly(cPent) = CN[C@H](C(=O)O)C1CCCC1; Phe(3-I) = N[C@@H](Cc1cccc(I)c1)C(=O)O; Phe(2-F) = N[C@@H](Cc1ccccc1F)C(=O)O; NMeCha = CN[C@@H](CC1CCCCC1)C(=O)O; hhPhe = N[C@@H](CCCc1ccccc1)C(=O)O; NMeChg = CN[C@H](C(=O)O)C1CCCCC1; NMeF = CN[C@@H](Cc1ccccc1)C(=O)O; NMeI = CC[C@H](C)[C@H](NC)C(=O)O; NMeD = CN[C@@H](CC(=O)O)C(=O)O; NMeL = CN[C@@H](CC(C)C)C(=O)O; NMeNva = CCC[C@H](NC)C(=O)O; d(β3hA) = C[C@@H](N)CC(=O)O; NMeS = CN[C@@H](CO)C(=O)O; NMeA = CN[C@@H](C)C(=O)O; NMeAib = CNC(C)(C)C(=O)O; Nle = CCCC[C@H](N)C(=O)O; Piperidide = C1CCN(*)CC1; Pyrrolidide = C1CCN(*)C1; Ac5c = NC1(C(=O)O)CCCC1; Aze = O=C(O)[C@@H]1CCN1; Cyclobutyl = C1CC(*)C1; Sar = CNCC(=O)O
measured quantity: IC50

INSERT INTO measurements (compound, measured_quantity, value_observed) VALUES
  ('CC[C@H](C)[C@@H]1NC(=O)[C@H](CC(C)C)N(C)C(=O)C[C@@H](C(=O)N(C)C)N(C)C(=O)[C@H](C2CCCC2)N(C)C(=O)C2(CCCC2)NC(=O)[C@H](CCN2CCCC(F)(F)C2)N(C)C(=O)[C@H](CCc2ccc(C(F)(F)F)c(Cl)c2)NC(=O)CN(C)C(=O)[C@H](CC2CCCCC2)N(C)C(=O)[C@@H]2CCN2C(=O)[C@H](C)N(C)C1=O [Compound 910] ([NMeL]I[NMeA][Aze][NMeCha][Sar][hPhe(3-Cl-4-CF3)][NMeAbu(3,3-F2-piperidino)][Ac5c][NMeGly(cPent)][NMeD]-NMe2; lactam N-11)', 'IC50', '4.3 nM'),
  ('CCCC[C@@H]1NC(=O)[C@H](Cc2cccc(I)c2)NC(=O)CN(C)C(=O)[C@H](Cc2ccc(Cl)cc2)N(C)C(=O)CN(C)C(=O)CN(C)C(=O)[C@H]([C@@H](C)CC)NC(=O)[C@H](CC(C)C)N(C)C(=O)C[C@@H](C(=O)N2CCCCC2)N(C)C(=O)[C@H](CC(C)C)NC(=O)[C@H](Cc2ccc(F)cc2)N(C)C1=O [Compound 997] ([NMeL]I[Sar][Sar][NMePhe(4-Cl)][Sar][Phe(3-I)][Nle][NMePhe(4-F)]L[NMeD]-Piperidide; lactam N-11)', 'IC50', '24 nM'),
  ('CC[C@H](C)[C@@H]1NC(=O)[C@H](CC(C)C)N(C)C(=O)C[C@@H](C(=O)N2CCCCC2)N(C)C(=O)[C@H](C2CCCCC2)N(C)C(=O)C2(CCCC2)NC(=O)[C@@H]2CCCN2C(=O)[C@H](CCc2ccc(C(F)(F)F)c(Cl)c2)NC(=O)CN(C)C(=O)[C@H](COC2CCC2)N(C)C(=O)CN(C)C(=O)CN(C)C1=O [Compound 309] ([NMeL]I[Sar][Sar][NMeS](Cyclobutyl)[Sar][hPhe(3-Cl-4-CF3)]P[Ac5c][NMeChg][NMeD]-Piperidide; lactam N-11)', 'IC50', '0.75 nM'),
  ('CC[C@H](C)[C@@H]1NC(=O)[C@H](C)N(C)C(=O)C[C@@H](C(=O)N2CCCC2)NC(=O)[C@H](CC(C)C)NC(=O)[C@H](Cc2ccccc2)N(C)C(=O)[C@H](CC(C)C)NC(=O)[C@H](Cc2cccc(Cl)c2)NC(=O)CN(C)C(=O)[C@H](Cc2ccc(Cl)cc2)N(C)C(=O)CN(C)C(=O)CN(C)C1=O [Compound 499] ([NMeA]I[Sar][Sar][NMePhe(4-Cl)][Sar][Phe(3-Cl)]L[NMeF]LD-Pyrrolidide; lactam N-11)', 'IC50', '85 nM'),
  ('CC[C@H](C)[C@@H]1NC(=O)[C@H](C)N(C)C(=O)C[C@@H](C)NC(=O)[C@H](CC(C)C)N(C)C(=O)[C@H](Cc2ccccc2)N(C)C(=O)[C@@H]2CCCN2C(=O)[C@H](CCc2ccc(C(F)(F)F)cc2)NC(=O)CN(C)C(=O)[C@H]([C@@H](C)CC)N(C)C(=O)CN(C)C(=O)CN(C)C1=O [Compound 18] (cyclo(I[Sar][Sar][NMeI][Sar][hPhe(4-CF3)]P[NMeF][NMeL][d(β3hA)][NMeA]))', 'IC50', '230 nM'),
  ('CCCC[C@@H]1NC(=O)[C@H](Cc2cccc(Br)c2)NC(=O)CN(C)C(=O)[C@H](Cc2ccc(Cl)cc2)N(C)C(=O)[C@@H]2CCN2C(=O)[C@H](C)N(C)C(=O)[C@H]([C@@H](C)CC)NC(=O)[C@H](CC(C)C)N(C)C(=O)C[C@@H](C(=O)N2CCCCC2)N(C)C(=O)[C@H](CC(C)C)NC(=O)C(C)(C)N(C)C1=O [Compound 1415] ([NMeL]I[NMeA][Aze][NMePhe(4-Cl)][Sar][Phe(3-Br)][Nle][NMeAib]L[NMeD]-Piperidide; lactam N-11)', 'IC50', '34 nM'),
  ('CC[C@H](C)[C@@H]1NC(=O)[C@H](C)N(C)C(=O)C[C@@H](C(=O)N2CCCCC2)N(C)C(=O)[C@H](C2CCCCC2)N(C)C(=O)C2(CCCC2)NC(=O)[C@@H]2CCCN2C(=O)[C@H](CCCc2ccccc2)NC(=O)CN(C)C(=O)[C@H](CC2CCCCC2)N(C)C(=O)CN(C)C(=O)CN(C)C1=O [Compound 633] ([NMeA]I[Sar][Sar][NMeCha][Sar][hhPhe]P[Ac5c][NMeChg][NMeD]-Piperidide; lactam N-11)', 'IC50', '120 nM'),
  ('CC[C@H](C)[C@@H]1NC(=O)[C@H](CC(C)C)N(C)C(=O)C[C@@H](C(=O)N2CCCCC2)N(C)C(=O)[C@H](CC(C)C)NC(=O)C(C)(C)N(C)C(=O)[C@H](Cc2ccccc2F)NC(=O)[C@H](Cc2cccc(I)c2)NC(=O)CN(C)C(=O)[C@H](Cc2ccc(C)cc2)N(C)C(=O)CN(C)C(=O)CN(C)C1=O [Compound 556] ([NMeL]I[Sar][Sar][NMePhe(4-Me)][Sar][Phe(3-I)][Phe(2-F)][NMeAib]L[NMeD]-Piperidide; lactam N-11)', 'IC50', '30 nM'),
  ('CCC[C@H]1C(=O)NC2(CCCC2)C(=O)N(C)[C@@H](C2CCCCC2)C(=O)N(C)[C@H](C(=O)N2CCCCC2)CC(=O)N(C)[C@@H](CC(C)C)C(=O)N[C@@H]([C@@H](C)CC)C(=O)N(C)CC(=O)N2CCC[C@H]2C(=O)N(C)[C@@H](CC2CCCCC2)C(=O)N(C)CC(=O)N[C@@H](CCc2ccc(C(F)(F)F)c(Cl)c2)C(=O)N1C [Compound 392] ([NMeL]I[Sar]P[NMeCha][Sar][hPhe(3-Cl-4-CF3)][NMeNva][Ac5c][NMeChg][NMeD]-Piperidide; lactam N-11)', 'IC50', '12 nM');

###

Molecular target: Kras and SOS1 (biotin-tagged human Kras loaded with GDP, His-tagged human SOS1) (Homo sapiens, UniProt P01116, G12D)
Construct: made in house; host or cells: E. coli (stated for Kras only)
Experiment: Protein-protein interaction inhibition between Kras and SOS1 (KrasGl2D-SOS PPI) using AlphaScreen
Type: binding
Details: AlphaScreen; biotin-tagged human Kras loaded with GDP, His-tagged human SOS1; read-out: KRAS G12D-SOS PPI IC50
Non-standard residues stand in square brackets, D forms with d. Residues, ends and D or L forms follow the SMILES beside them. hPhe(3-Cl-4-CF3) = N[C@@H](CCc1ccc(C(F)(F)F)c(Cl)c1)C(=O)O; NMePhe(4-Me) = CN[C@@H](Cc1ccc(C)cc1)C(=O)O; NMeGly(cPent) = CN[C@H](C(=O)O)C1CCCC1; NMeL = CN[C@@H](CC(C)C)C(=O)O; d(β3hA) = C[C@@H](N)CC(=O)O; NMeA = CN[C@@H](C)C(=O)O; Ac5c = NC1(C(=O)O)CCCC1; Aze = O=C(O)[C@@H]1CCN1; Sar = CNCC(=O)O
measured quantity: IC50 (nM)

INSERT INTO results (molecule, measured_quantity, value_observed) VALUES
  ('CC[C@H](C)[C@@H]1NC(=O)[C@H](CC(C)C)N(C)C(=O)C[C@@H](C)NC(=O)[C@H](C2CCCC2)N(C)C(=O)C2(CCCC2)NC(=O)[C@@H]2CCCN2C(=O)[C@H](CCc2ccc(C(F)(F)F)c(Cl)c2)NC(=O)CN(C)C(=O)[C@H](Cc2ccc(C)cc2)N(C)C(=O)[C@@H]2CCN2C(=O)[C@H](C)N(C)C1=O [Compound 1537] (cyclo([Ac5c][NMeGly(cPent)][d(β3hA)][NMeL]I[NMeA][Aze][NMePhe(4-Me)][Sar][hPhe(3-Cl-4-CF3)]P))', 'IC50', 3.9);
